System: Z-138 cells
experimentSummary: Z-138 Methylation Assay (In Cell Western for symmetric di-methyl arginine and DNA content)
Format: cell-based
conditionDetails: Homo sapiens, Table D-2, read-out: ICW EC50
endpoint: EC50

>>> assayvalue("CS(=O)(=O)c1cccc(-c2cccc(OCC(O)CN3CCc4ccccc4C3)c2)c1 (centres unmarked)")
"1000 to 10000 nM"
>>> assayvalue("COc1ccc(-c2cccc(OCC(O)CN3CCc4ccccc4C3)c2)cc1 (centres unmarked)")
"1000 to 10000 nM"
>>> assayvalue("CN1CCN(C(=O)Cn2cnc3ccc(-c4cccc(OCC(O)CN5CCc6ccccc6C5)c4)cc32)CC1 (centres unmarked)")
"101 to 1000 nM"
>>> assayvalue("OC(CNc1cc(-c2ccc3ncn(C4CCOCC4)c3c2)ccn1)CN1CCc2ccccc2C1 (centres unmarked)")
"101 to 1000 nM"
>>> assayvalue("Cn1cnc2cc(-c3cc(NCC(O)CN4CCc5ccccc5C4)n[nH]3)ccc21 (centres unmarked)")
"101 to 1000 nM"
>>> assayvalue("OC(CNc1cc(-c2ccc3ncn(C4CCNCC4)c3c2)ccn1)CN1CCc2ccccc2C1 (centres unmarked)")
"101 to 1000 nM"
>>> assayvalue("COc1ccc(-c2cccc(OCC(O)CN3CCc4ccccc4C3)c2)c(Cl)c1 (centres unmarked)")
"1000 to 10000 nM"

Ask: Answer with reported EC50 of O[C@@H](COc1cccc(-c2cccc3cccnc23)c1)CN1CCc2ccccc2C1
Reply: 101 to 1000 nM

###

Catalogue of compounds with associated EC50
Test system: Z-138 cells
experimentSummary: Z-138 Proliferation Assay (Cell Titer Glo, 5 days)
Format: cell-based
conditionDetails: Homo sapiens, Table D-2

Please review the entries below; each comes with its answer.
>>> assayvalue("Cn1ccc2cnc(-c3cccc(OCC(O)CN4CCc5ccccc5C4)c3)nc21 (stereo not shown)")
"> 20 µM"
>>> assayvalue("CN1CCN(C(=O)Cn2cnc3ccc(-c4cccc(OCC(O)CN5CCc6ccccc6C5)c4)cc32)CC1 (stereo not shown)")
"10 to 40 µM"
>>> assayvalue("OC(COc1cccc(-c2ccc(C(F)(F)F)cc2Cl)c1)CN1CCc2ccccc2C1 (stereo not shown)")
"> 20 µM"
>>> assayvalue("O=C(c1cccc(-c2cccc(OCC(O)CN3CCc4ccccc4C3)c2)c1)N1CCCC1 (stereo not shown)")
"10 to 40 µM"
>>> assayvalue("OC(CNc1cc(-c2ccc3ncn(C4CCNCC4)c3c2)ccn1)CN1CCc2ccccc2C1 (stereo not shown)")
"1 to 10 µM"
>>> assayvalue("OC(COc1cccc(-c2cccnc2F)c1)CN1CCc2ccccc2C1 (stereo not shown)")
"> 20 µM"
>>> assayvalue("OC(CNc1cc(-c2ncc3ccn(C4CNC4)c3n2)ccn1)CN1CCc2ccccc2C1 (stereo not shown)")
"1 to 10 µM"
>>> assayvalue("Cn1cc2ccc(-c3cccc(OCC(O)CN4CCc5ccccc5C4)c3)nc2n1 (stereo not shown)")
"10 to 40 µM"
>>> assayvalue("CC(C)Oc1ccc(F)c(-c2cccc(OCC(O)CN3CCc4ccccc4C3)c2)c1 (stereo not shown)")
"> 20 µM"
>>> assayvalue("OC(COCC1CCCCO1)CN1CCc2ccccc2C1 (stereo not shown)")
"> 40 µM"

Ask: Give EC50 for the following compound: Cn1nccc1C(=O)Nc1cccc(OCC(O)CN2CCc3ccccc3C2)c1 (stereo not shown)
Reply: > 20 µM

Ask: Please give the documented EC50 of O=c1[nH]c2ccc(-c3cccc(OCC(O)CN4CCc5ccccc5C4)c3)cc2[nH]1 (stereo not shown)
Reply: 10 to 40 µM

Ask: Report EC50 for CC(C)(C)OCc1cccc(-c2cccc(OCC(O)CN3CCc4ccccc4C3)c2)c1 (stereo not shown)
Reply: > 20 µM

###

System: Z-138 cells
experimentSummary: Z-138 Proliferation Assay (Cell Titer Glo, 5 days)
Assay type: cell-based
conditionDetails: Homo sapiens, Table D-2
Listed here are compounds together with their documented EC50.

>>> assayvalue("OC(COc1cccc(-c2ccc(C(F)(F)F)cc2C(F)(F)F)c1)CN1CCc2ccccc2C1 (centres unmarked)")
"> 20 µM"
>>> assayvalue("CCn1ccnc1COCC(O)CN1CCc2ccccc2C1 (centres unmarked)")
"> 40 µM"
>>> assayvalue("O=C(c1ccc(Cn2nccc2-c2ccc(OCC(O)CN3CCc4ccccc4C3)cc2)cc1)N1CCCC1 (centres unmarked)")
"10 to 40 µM"

Ask: # assay system Z-138 cells: give EC50 of O[C@H](COc1cccc(-c2cccc3cccnc23)c1)CN1CCc2ccccc2C1
Reply: > 20 µM

Ask: Find the measured EC50 of CC(=O)c1ccc(-c2cccc(OCC(O)CN3CCc4ccccc4C3)c2)cc1 (centres unmarked) with Z-138 cells as test system.
Reply: > 20 µM

Ask: GET EC50 | system: Z-138 cells | item: CC(C)n1cnc2ccc(-c3cccc(OCC(O)CN4CCc5ccccc5C4)c3)cc21 (centres unmarked)
Reply: 10 to 40 µM

Ask: # return EC50 for Cn1cnc2ccc(-c3cncc(NCC(O)CN4CCc5ccccc5C4)c3)cc21 (centres unmarked) , test system: Z-138 cells
Reply: 1 to 10 µM

Ask: Provide the reported EC50 (system: Z-138 cells) for CN1CCN(C(=O)Cn2ccc3cnc(-c4ccnc(NCC(O)CN5CCc6ccccc6C5)c4)nc32)CC1 (centres unmarked)
Reply: 1 to 10 µM

###

targetOrSystem: PRMT5/MEP50 (Homo sapiens, UniProt O14744)
Construct: Expressed full-length human Flag-PRMT5/6His-MeP50 protein complex was purified; made in house; host or cells: Spodoptera frugiperda (SF9) insect cells, baculovirus (pDEST8)
Sequence (O14744 with tags, fused parts or gaps): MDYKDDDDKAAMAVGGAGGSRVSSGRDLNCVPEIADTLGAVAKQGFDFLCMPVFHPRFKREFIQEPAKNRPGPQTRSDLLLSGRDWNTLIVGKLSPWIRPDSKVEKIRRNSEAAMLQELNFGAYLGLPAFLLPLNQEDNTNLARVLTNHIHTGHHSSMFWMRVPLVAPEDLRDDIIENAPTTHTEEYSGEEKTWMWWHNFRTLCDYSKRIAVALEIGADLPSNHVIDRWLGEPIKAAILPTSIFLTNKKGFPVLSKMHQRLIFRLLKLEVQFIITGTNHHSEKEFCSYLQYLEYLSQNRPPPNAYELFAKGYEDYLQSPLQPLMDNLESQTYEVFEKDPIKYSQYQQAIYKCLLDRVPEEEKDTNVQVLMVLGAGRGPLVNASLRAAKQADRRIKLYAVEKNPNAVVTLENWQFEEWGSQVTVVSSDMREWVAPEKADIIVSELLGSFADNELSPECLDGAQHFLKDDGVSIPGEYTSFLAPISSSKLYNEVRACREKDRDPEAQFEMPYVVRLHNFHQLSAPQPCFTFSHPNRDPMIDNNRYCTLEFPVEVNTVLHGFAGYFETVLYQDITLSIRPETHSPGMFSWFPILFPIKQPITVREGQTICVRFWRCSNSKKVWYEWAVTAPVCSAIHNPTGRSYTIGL
Sequence (Q9BQA1 with tags, fused parts or gaps partner limits assumed): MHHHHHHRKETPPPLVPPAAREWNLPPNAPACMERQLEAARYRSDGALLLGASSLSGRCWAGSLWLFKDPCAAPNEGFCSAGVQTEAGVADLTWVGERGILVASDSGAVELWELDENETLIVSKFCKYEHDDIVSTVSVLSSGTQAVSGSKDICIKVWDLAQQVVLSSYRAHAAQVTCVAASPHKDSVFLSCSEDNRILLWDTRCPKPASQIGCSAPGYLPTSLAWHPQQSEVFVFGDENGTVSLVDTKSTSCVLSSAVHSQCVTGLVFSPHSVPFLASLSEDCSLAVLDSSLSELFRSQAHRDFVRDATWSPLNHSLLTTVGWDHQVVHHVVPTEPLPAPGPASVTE
experimentSummary: PRMT5 Biochemical Assay (PRMT5/MEP50 enzyme assay on peptide substrate, 3H-SAM Flashplate)
conditionDetails: Table D-2; read-out: Biochemical IC50
Description: S-adenosylmethionine (SAM), S-adenosylhomocysteine (SAH), bicine, KCl, Tween20, dimethylsulfoxide (DMSO), bovine skin gelatin (BSG), and Tris(2-carboxyethyl)phosphine hydrochloride solution (TCEP) were purchased from Sigma-Aldrich at the highest level of purity possible. ^3H-SAM was purchase from American Radiolabeled Chemicals with a specific activity of 80 Ci/mmol 384-well streptavidin Flashplates were purchased from PerkinElmer. […]
Entries and their measured IC50 follow.

Completed entries (count: 2):
>>> assayvalue("OC(COC1CCOCC1)CN1CCc2ccccc2C1 (stereo not shown)")
"10000 to 40000 nM"
>>> assayvalue("OC(COCC1CCCCC1)CN1CCc2ccccc2C1 (stereo not shown)")
"1000 to 10000 nM"

Ask: # return IC50 of OC(COc1cccc(-c2cccc(Oc3ccccc3)c2)c1)CN1CCc2ccccc2C1 (stereo not shown) (system: PRMT5/MEP50 (Homo sapiens, UniProt O14744))
Reply: 1000 to 10000 nM

Ask: Give the observed IC50 of CC1c2ccccc2CCN1CC(O)COc1cccc(-c2ccc3ncn(C)c3c2)c1 (stereo not shown) for PRMT5/MEP50 (Homo sapiens, UniProt O14744).
Reply: 101 to 1000 nM

Ask: Quote PRMT5/MEP50 (Homo sapiens, UniProt O14744) IC50 for entry CC(=O)N1CCC(n2ccc3cnc(-c4ccnc(NCC(O)CN5CCc6ccccc6C5)c4)nc32)CC1 (stereo not shown) .
Reply: < 100 nM

Ask: Enter measured IC50, system PRMT5/MEP50 (Homo sapiens, UniProt O14744), for the compound shown: OC(COc1cccc(-c2cnccn2)c1)CN1CCc2ccccc2C1 (stereo not shown)
Reply: 1000 to 10000 nM

Ask: // output IC50; input CC1Cc2ccccc2CN1CC(O)COc1cccc(CNC2CCCC2)c1 (stereo not shown) ; system PRMT5/MEP50 (Homo sapiens, UniProt O14744)
Reply: > 40000 nM

Ask: Specify IC50 for O=S1(=O)CCN(c2ccc(OCC(O)CN3CCc4ccccc4C3)cc2)CC1 (stereo not shown) , system PRMT5/MEP50 (Homo sapiens, UniProt O14744).
Reply: 1000 to 10000 nM

Ask: Name the value of IC50 reported for OC(COc1cccc(-c2ccc(C(F)(F)F)cc2)c1)CN1CCc2ccccc2C1 (stereo not shown) when tested on PRMT5/MEP50 (Homo sapiens, UniProt O14744).
Reply: 1000 to 10000 nM

Ask: Give PRMT5/MEP50 (Homo sapiens, UniProt O14744) IC50 for the following compound: Oc1cccc(-c2cccc(OCC(O)CN3CCc4ccccc4C3)c2)c1 (stereo not shown)
Reply: 101 to 1000 nM

###

Catalogue of IC50 readings, one per entry.
targetOrSystem: PRMT5/MEP50 (Homo sapiens)
Construct: Expressed full-length human Flag-PRMT5/6His-MeP50 protein complex was purified; made in house; host or cells: Spodoptera frugiperda (SF9) insect cells, baculovirus (pDEST8)
experimentSummary: PRMT5 Biochemical Assay (PRMT5/MEP50 enzyme assay on peptide substrate, 3H-SAM Flashplate)
conditionDetails: Table D-2; read-out: Biochemical IC50
Description: S-adenosylmethionine (SAM), S-adenosylhomocysteine (SAH), bicine, KCl, Tween20, dimethylsulfoxide (DMSO), bovine skin gelatin (BSG), and Tris(2-carboxyethyl)phosphine hydrochloride solution (TCEP) were purchased from Sigma-Aldrich at the highest level of purity possible. ^3H-SAM was purchase from American Radiolabeled Chemicals with a specific activity of 80 Ci/mmol 384-well streptavidin Flashplates were purchased from PerkinElmer. […]

Here's what some known entries look like.
>>> assayvalue("OC(COc1cccc(-c2ccncc2F)c1)CN1CCc2ccccc2C1 (centres unmarked) [Compound D190]")
"1000 to 10000 nM"
>>> assayvalue("Cn1cnc2ccc(-c3ccnc(NCC(O)CN4CCc5ccccc5C4)n3)cc21 (centres unmarked) [Compound D119]")
"101 to 1000 nM"
>>> assayvalue("CC(Oc1cccc(CNC2CCCC2)c1)C(O)CN1CCc2ccccc2C1 (centres unmarked) [Compound D49]")
"101 to 1000 nM"
>>> assayvalue("Cn1cnc2ccc(-c3cccc(OCC(O)CN4CCc5ccccc5C4)c3)nc21 (centres unmarked) [Compound D189]")
"< 100 nM"
>>> assayvalue("OC(COc1cccc(-c2ccc3cnoc3c2)c1)CN1CCc2ccccc2C1 (centres unmarked) [Compound D166]")
"1000 to 10000 nM"

Proceeding to the next molecule to report its IC50.
Ask: State IC50 (PRMT5/MEP50 (Homo sapiens)) of COc1c(COCC(O)CN2CCc3ccccc3C2)ccc2ccccc12 (centres unmarked) [Compound D279] .
Reply: 1000 to 10000 nM

Hey, just so you know, these numbers are from patent US20150344457A1.
